Sourced from ChEMBL document CHEMBL2169877

Target: Voltage-gated inwardly rectifying potassium channel KCNH2 (Homo sapiens)
Sequence (Q12809 whole entry): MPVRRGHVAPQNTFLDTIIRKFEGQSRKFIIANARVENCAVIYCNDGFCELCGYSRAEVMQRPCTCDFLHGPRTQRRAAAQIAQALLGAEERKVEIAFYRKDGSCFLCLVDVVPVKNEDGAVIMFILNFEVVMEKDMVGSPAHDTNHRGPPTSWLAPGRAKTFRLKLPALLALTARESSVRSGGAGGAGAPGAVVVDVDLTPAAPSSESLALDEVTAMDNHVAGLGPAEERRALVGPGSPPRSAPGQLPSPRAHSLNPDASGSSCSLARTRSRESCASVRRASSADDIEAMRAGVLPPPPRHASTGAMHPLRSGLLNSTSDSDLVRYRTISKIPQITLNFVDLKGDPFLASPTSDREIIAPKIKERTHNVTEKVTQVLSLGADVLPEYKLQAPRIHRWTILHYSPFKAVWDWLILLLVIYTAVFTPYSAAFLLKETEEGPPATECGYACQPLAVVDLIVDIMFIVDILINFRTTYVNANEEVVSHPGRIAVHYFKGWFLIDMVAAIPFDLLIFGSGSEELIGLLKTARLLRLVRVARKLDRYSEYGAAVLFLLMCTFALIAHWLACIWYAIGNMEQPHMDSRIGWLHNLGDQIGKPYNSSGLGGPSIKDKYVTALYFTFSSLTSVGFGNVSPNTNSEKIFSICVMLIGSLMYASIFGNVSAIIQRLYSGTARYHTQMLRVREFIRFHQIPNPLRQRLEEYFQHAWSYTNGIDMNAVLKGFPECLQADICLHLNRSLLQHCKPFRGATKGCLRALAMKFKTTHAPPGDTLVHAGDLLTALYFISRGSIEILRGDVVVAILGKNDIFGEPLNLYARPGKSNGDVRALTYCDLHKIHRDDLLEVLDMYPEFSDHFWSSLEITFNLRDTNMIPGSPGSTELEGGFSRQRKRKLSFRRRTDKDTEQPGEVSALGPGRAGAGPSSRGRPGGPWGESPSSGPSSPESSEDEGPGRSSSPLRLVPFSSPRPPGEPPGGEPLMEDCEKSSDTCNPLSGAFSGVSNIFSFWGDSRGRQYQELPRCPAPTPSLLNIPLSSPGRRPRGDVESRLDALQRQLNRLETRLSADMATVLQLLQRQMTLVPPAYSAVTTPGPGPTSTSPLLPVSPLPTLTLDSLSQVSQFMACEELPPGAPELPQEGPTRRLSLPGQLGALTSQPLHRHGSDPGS
Assay: Inhibition of human recombinant ERG channel expressed in […] cells after 3 to 8 mins by voltage clamp assay
assay.readout: IC50 (µM)
Report as a plain number; the unit µM is understood.

Provide IC50, tested on Voltage-gated inwardly rectifying potassium channel KCNH2 (Homo sapiens), for CNc1nn2c3c(cnc2c1S(=O)(=O)c1ccccc1)CN(C)CC3 .
54.2

---

Biological target: 5-hydroxytryptamine receptor 2B (Homo sapiens)
Sequence (P41595 whole entry): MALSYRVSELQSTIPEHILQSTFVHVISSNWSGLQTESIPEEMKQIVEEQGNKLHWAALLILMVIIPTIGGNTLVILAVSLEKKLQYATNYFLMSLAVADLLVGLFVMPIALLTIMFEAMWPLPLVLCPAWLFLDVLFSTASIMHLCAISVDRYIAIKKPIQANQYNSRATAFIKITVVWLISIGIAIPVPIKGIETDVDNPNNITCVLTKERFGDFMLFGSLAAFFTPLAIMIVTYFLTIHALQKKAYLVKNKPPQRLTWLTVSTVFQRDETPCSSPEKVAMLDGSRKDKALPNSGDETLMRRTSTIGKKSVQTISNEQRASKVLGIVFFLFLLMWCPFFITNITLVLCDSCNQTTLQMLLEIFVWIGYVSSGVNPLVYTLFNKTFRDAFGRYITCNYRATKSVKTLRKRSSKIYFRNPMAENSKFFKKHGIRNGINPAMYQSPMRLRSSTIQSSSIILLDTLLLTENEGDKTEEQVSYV
Experiment: Antagonist activity at human recombinant 5HT2B receptor expressed in HEK293 cells assessed as inhibition of alphamethyl5HT-induced intracellular calcium mobilization by Fluo4-based staining method
Assay type: functional, cell-based
Conditions: read-out: IC50
assay.readout: IC50 (µM)
Report as a plain number; the unit µM is understood.

// fetch IC50 given entry CNc1nn2c3c(cnc2c1S(=O)(=O)c1ccccc1)CN(C)CC3
6.16

---

Molecular target: 5-hydroxytryptamine receptor 6 (Homo sapiens)
Sequence (P50406 whole entry): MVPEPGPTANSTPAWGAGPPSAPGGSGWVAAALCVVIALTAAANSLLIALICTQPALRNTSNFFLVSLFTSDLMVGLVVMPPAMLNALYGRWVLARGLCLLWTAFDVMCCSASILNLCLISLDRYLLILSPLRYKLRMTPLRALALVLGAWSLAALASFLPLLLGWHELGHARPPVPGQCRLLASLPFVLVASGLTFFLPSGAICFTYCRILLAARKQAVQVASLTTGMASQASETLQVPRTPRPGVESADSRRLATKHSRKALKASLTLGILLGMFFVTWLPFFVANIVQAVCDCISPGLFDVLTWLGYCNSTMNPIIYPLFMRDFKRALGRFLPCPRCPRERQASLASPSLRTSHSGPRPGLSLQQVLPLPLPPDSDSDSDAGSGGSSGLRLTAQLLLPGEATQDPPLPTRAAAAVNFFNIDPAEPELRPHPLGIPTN
Assay: Antagonist activity at human recombinant 5HT6 receptor expressed in […] cells assessed as inhibition of serotonin-induced cAMP accumulation after 2 hrs
Type: functional, cell-based, HEK293
Exercise: for every item that follows, state its recorded log10(Ki).
A value of 2 here means Ki of 100 in nM, since values are log10.

// fetch log10(Ki) given entry CSc1nn2cc3c(nc2c1S(=O)(=O)c1ccccc1)CCN(C)C3
2.69

// fetch log10(Ki) given entry CNc1nn2c3c(cnc2c1S(=O)(=O)c1ccccc1)CN(C)CC3
0.26

// fetch log10(Ki) given entry CSc1nn2cc3c(nc2c1S(=O)(=O)c1ccc(F)cc1)CCN(C)C3
3.06

// fetch log10(Ki) given entry CNc1nn2c3c(cnc2c1S(=O)(=O)c1ccccc1)CNCC3
0.28

// fetch log10(Ki) given entry CNc1nn2cc3c(nc2c1S(=O)(=O)c1ccccc1)CCN(C)C3
1.16

// fetch log10(Ki) given entry CSc1nn2c3c(cnc2c1S(=O)(=O)c1ccccc1)CN(C)CC3
1.17

// fetch log10(Ki) given entry CNc1nn2cc3c(nc2c1S(=O)(=O)c1ccccc1)CCNC3
0.32

---

Exercise: for every item that follows, state its recorded Ki.
Molecular target: UniProt P50406
Test: Displacement of [3H]lysergic acid diethylamide from human recombinant 5HT6 receptor expressed in HeLa cells after 120 mins
Assay type: cell-based
Report as a plain number; the unit nM is understood.

// fetch Ki given entry CNc1nn2c3c(cnc2c1S(=O)(=O)c1ccccc1)CN(C)CC3
0.39

// fetch Ki given entry CSc1nn2c3c(cnc2c1S(=O)(=O)c1ccc(F)cc1)CN(C)CC3
35.7

// fetch Ki given entry Cc1nn2c3c(cnc2c1S(=O)(=O)c1ccccc1)CN(C)CC3
60.4

// fetch Ki given entry CSc1nn2c3c(cnc2c1S(=O)(=O)c1ccccc1)CN(C)CC3
7.7

// fetch Ki given entry CNc1nn2cc3c(nc2c1S(=O)(=O)c1ccccc1)CCN(C)C3
0.82
